# System: PC-3 prostate
# experiment.description: NCI-60 one-dose screen, 48 h (100 = growth as untreated, 0 = no growth, -100 = all killed)
# condition.context: 10 µM unless noted
Compounds without any hit were thinned out: in the full panel of roughly 83,000, 20% have a hit.
Kindly state growth for each of the entries shown.
Numeric answer only, unit % assumed.

Return value of growth for input "CN1CCN(Cc2ccc(NC(=O)c3cncc(C#Cc4cnc5ccc(NC6CCOCC6)nn45)c3)cc2C(F)(F)F)CC1" , no commentary. -15.5

Return value of growth for input "O=C(NCCCNc1cc(-c2cn(-c3ccccc3)nc2-c2cccc(O)c2)ccn1)Nc1cccc(C(F)(F)F)c1" , no commentary. 27.1

Return value of growth for input "COc1cc2c3c(n(CCCNCC4CC4)c(=O)c2cc1OC)-c1cc2c(cc1C3=O)OCO2" , no commentary. 40

Return value of growth for input "COc1cc(/C=N/n2cnc3oc(-c4ccccc4)cc3c2=N)cc(CN2CCN(C)CC2)c1O" , no commentary. 77.7

====

# Tested on: SW-620 colon
# experiment.description: NCI-60 one-dose screen, 48 h (100 = growth as untreated, 0 = no growth, -100 = all killed)
# condition.context: 10 µM unless noted
Compounds without any hit were thinned out: in the full panel of roughly 83,000, 20% have a hit.
One threshold, 80%, splits the recorded growth values: lower ones are y, equal or higher ones are n.

Given "O=C(COc1cccc2cccnc12)Nc1ccc(C(=O)/C=C/c2ccc(Cl)cc2)cc1" , is recorded growth strictly lower than 80%? n

Given "CCOC(=O)Nc1cccc(-n2cnc3cc(-c4ccc(O)cc4)ccc32)c1" , is recorded growth strictly lower than 80%? y

Given "CS(=O)(=O)c1nccc(-c2c(-c3ccc(F)c(OCCc4ccccc4)c3)nc3sccn23)n1" , is recorded growth strictly lower than 80%? n

Given "C(=C(\C1=NCCN1)n1cnc2ccccc21)/c1ccc2ccccc2c1" , is recorded growth strictly lower than 80%? y

Given "CCNCc1c(-c2cccc(OC(F)(F)F)c2)[nH]c2ccc(N3CCCC3)cc2c1=O" , is recorded growth strictly lower than 80%? y

Given "O=C(O)c1ccc(-n2cc(CNc3ccc(F)cc3)c(-c3ccc(C(F)(F)F)cc3)n2)cc1" , is recorded growth strictly lower than 80%? n

Given "COc1ccc(CCN2C(=O)/C(=C/c3nc(CO)cs3)SC2=S)cc1" , is recorded growth strictly lower than 80%? n

Given "Cn1ccnc1C(=O)/C=C/c1ccc(C(=O)Nc2ccc(NC(=O)CCNC(=O)c3csc(Br)n3)cc2)cc1" , is recorded growth strictly lower than 80%? y

Given "O=C(/C=C/c1cn(-c2ccccc2)nc1-c1ccc(Cl)cc1)c1cc2ccccc2oc1=O" , is recorded growth strictly lower than 80%? y

Given "O=C(/C=C1\C=CN(CCCCF)c2ccccc21)n1ccc2ccccc21" , is recorded growth strictly lower than 80%? n

Given "O=S(=O)(Nc1ccc2c(c1)OC(F)(F)O2)c1ccc(-c2cnc(C3CC3)o2)cc1" , is recorded growth strictly lower than 80%? y

Given "COc1cc2c3c(n(CCCN4CCC[C@H]4C(N)=O)c(=O)c2cc1OC)-c1cc2c(cc1C3=O)OCO2" , is recorded growth strictly lower than 80%? y

Given "COc1cnc2c(c1)C(=O)c1c-2n(CCCNCC2CC2)c(=O)c2cc(F)ccc12" , is recorded growth strictly lower than 80%? y

Given "Nc1n[nH]c2cccc(C#Cc3cccc(NC(=O)c4cccc(OC(F)(F)F)c4)c3)c12" , is recorded growth strictly lower than 80%? y

Given "Nc1nc(-c2cccc([N+](=O)[O-])c2)c(N=Nc2cccc(Cl)c2)s1" , is recorded growth strictly lower than 80%? y

Given "COc1cc(NC2=C(Cl)C(=O)c3nc(C)ccc3C2=O)cc(OC)c1" , is recorded growth strictly lower than 80%? y

Given "CCNC(=O)Oc1ccc(/C(=C(/C)c2ccc(Cl)cc2)c2ccc(OCCN3CCCC3)cc2)cc1" , is recorded growth strictly lower than 80%? n

Given "Nc1nc(-c2cccc([N+](=O)[O-])c2)c(N=Nc2ccccc2[N+](=O)[O-])s1" , is recorded growth strictly lower than 80%? y

Given "COc1ccccc1/C=C/C(=O)c1nnn(-c2ccc(C(=O)O)cc2)c1C" , is recorded growth strictly lower than 80%? n
